System: DLD1
Experiment: TCF/Wnt firefly luciferase reporter signal relative to plate median (fraction of plate median); higher = higher Wnt reporter signal
Details: 10 µM; treatment time 24 h; reporter: TCF4/Wnt
Listing: TCF/Wnt firefly luciferase reporter signal of selected molecules
quantity_kind: TCF/Wnt firefly luciferase reporter signal

# entry_smiles, study_system, numeric_result
measured = [
    ("CC(C)(O)CC(=O)NCCn1ccc2ncnc(Nc3ccc(Oc4cccc(C(F)(F)F)c4)c(Cl)c3)c21", "DLD1", 1.07),
    ("O=c1cc(N2CCOCC2)oc2c(-c3ccccc3)cccc12", "DLD1", 1.15),
    ("Cn1cc(-c2ccc3ncc(Cc4ccc5ncccc5c4)n3n2)cn1", "DLD1", 0.769),
    ("CC(C)(C)c1cc(/C=C(\\C#N)C(N)=S)cc(C(C)(C)C)c1O", "DLD1", 1.04),
    ("Cn1cnc(N)c2ncnc1-2", "DLD1", 1.12),
    ("OCCn1cc(-c2cnc3nnn(Cc4ccc5ncccc5c4)c3n2)cn1", "DLD1", 1.07),
]

====

System: SW480
Test: cell viability (CellTiter-Glo) relative to plate median (fraction of plate median); higher = more viable cells
Settings: 5 µM; treatment time 24 h; reporter: 7TFP
Hi! Just check whether cell viability is below 1. Below gives YES, equal or above gives NO.

# compound, category
records = [
    ("COc1ccc(-c2coc3cc(O)ccc3c2=O)cc1", "YES"),
    ("O=c1cc(-c2ccccc2)oc2cc(O)c(O)c(O)c12", "NO"),
    ("COc1ccc(-c2cc(=O)c3c(O)cc(O)cc3o2)cc1", "NO"),
    ("CC1COc2c(N3CCN(C)CC3)c(F)cc3c(=O)c(C(=O)O)cn1c23 (stereo unspecified)", "YES"),
    ("C[C@H]1CC2C3CCC4=CC(=O)C=C[C@]4(C)[C@@]3(F)[C@@H](O)C[C@]2(C)[C@@]1(O)C(=O)COP(=O)(O)O (stereo partly specified)", "YES"),
    ("Nc1ccc(S(=O)(=O)Nc2ncccn2)cc1", "YES"),
]

====

Tested on: DLD1
Assay: TCF/Wnt firefly luciferase reporter signal relative to plate median (fraction of plate median); higher = higher Wnt reporter signal
Details: 5 µM; treatment time 24 h; reporter: 7TFP
Listing: TCF/Wnt firefly luciferase reporter signal of selected compounds
quantity_kind: TCF/Wnt firefly luciferase reporter signal

# compound, numeric_result
records = [
    ("Cc1cc(O)c(C)c(O)c1C(=O)O", 0.792),
    ("Oc1ccc([C@H]2Oc3cc(O)cc(O)c3C[C@H]2O)cc1", 1.01),
    ("C[C@H](CCC(=O)O)[C@H]1CC[C@H]2[C@@H]3CC[C@@H]4CCCC[C@]4(C)[C@H]3CC[C@]12C", 0.905),
    ("Oc1c(Cl)cc(Cl)c(Cl)c1Cc1c(O)c(Cl)cc(Cl)c1Cl", 1.34),
    ("CCc1cn([C@H]2C[C@H](O)[C@@H](CO)O2)c(=O)[nH]c1=O", 1.03),
    ("CN(C)CCCO[C@@H]1[C@H]2OC(C)(C)O[C@H]2O[C@@H]1[C@H](O)CO", 0.998),
    ("C=CCCCCCCCCCCCC(O)CC(O)COC(C)=O (stereo unspecified)", 0.866),
    ("CCCCS(=N)(=O)CCC(N)C(=O)O (stereo unspecified)", 1.05),
    ("O=C(O)Cc1ccccc1Nc1c(Cl)cccc1Cl", 0.95),
    ("O=C1C=C(O)C(=O)c2ccccc21", 0.947),
    ("CC(=O)OC1CC[C@@]2(C)C(CC[C@H]3[C@@H]4CC=C(C(C)=O)[C@@]4(C)C(=O)C[C@@H]32)C1 (stereo partly specified)", 1.08),
    ("Cn1c(=O)c2nc(C3CCCC3)[nH]c2n(C)c1=O", 1.01),
    ("CC(C)CCCC(C)N (stereo unspecified)", 0.875),
    ("COc1cc2occ(-c3ccc(O)cc3)c(=O)c2cc1O", 1.22),
    ("COc1ccc(C(=O)c2ccccc2O)c(O)c1", 1.16),
    ("C[C@](N)(Cc1ccc(O)cc1)C(=O)O", 0.896),
    ("CC(=O)OCC(=O)[C@@]1(O)CC[C@H]2[C@@H]3CCC4=CC(=O)CC[C@]4(C)[C@H]3[C@@H](O)C[C@@]21C", 1.05),
    ("COc1c2occc2cc2ccc(=O)oc12", 1.09),
    ("COC(=O)[C@@H]1OC(=O)C2OC23[C@@]1(C)CCC1[C@]2(C)C(C[C@H](O)[C@]13C)C(C)(C)[C@H](OC(C)=O)C[C@@H]2OC(C)=O (stereo partly drawn) [7beta-HYDROXY-7-DESACETOXYKHIVORINIC ACID, METHYL ESTER]", 1.11),
    ("Cc1cc(N)c2ccccc2[n+]1CCCCCCCCCC[n+]1c(C)cc(N)c2ccccc21", 0.751),
    ("CC1CCc2cc(F)cc3c(=O)c(C(=O)O)cn1c23 (stereo unspecified)", 0.953),
]
